- System: L1210 leukemia ip in BDF1 mice, survival T/C
- run_description: NCI In Vivo Anticancer Drug Screen. Data for tumor model L1210 Leukemia (intraperitoneal) in B6D2F1 (BDF1) mice
- condition_details: endpoint: mean survival time; dose: 100.0 mg/kg/injection; schedule: Q01DX009 (ip); vehicle: gum acacia; higher = longer survival
Inconclusive results and toxic doses are left out.
Measured T/C, listed per entry for reference.

T/C measured on CC1CCCC(C)N1C(=O)Nc1cccc(C(F)(F)F)c1 (centres undefined) = 108 % of control

----------
- Tested on: L1210 leukemia ip in BDF1 mice, survival T/C
- run_description: NCI In Vivo Anticancer Drug Screen. Data for tumor model L1210 Leukemia (intraperitoneal) in B6D2F1 (BDF1) mice
- condition_details: endpoint: mean survival time; dose: 100.0 mg/kg/injection; schedule: Q04DX003 (ip); vehicle: acetone; higher = longer survival
Toxic doses and inconclusive results are not listed.
Measured T/C, listed per entry for reference.

Here is how some molecules turned out for T/C.
INSERT INTO results (molecule, assay_value) VALUES
  ('NOCc1ccc(OCc2ccccc2)cc1', '102 % of control'),
  ('COc1ccccc1CNc1ncnc2nc[nH]c12', '97 % of control'),
  ('O=C1/C(=C/c2ccccc2[N+](=O)[O-])CCc2ccccc21', '96 % of control'),
  ('CC1(C)CN(N=O)C(C)(C)CN1N=O', '99 % of control'),
  ('COc1ccccc1C(=O)NS(=O)(=O)c1ccc(Cl)cc1', '113 % of control');

T/C measured on CC(=O)OC1CCCCC1c1cccc(C)c1 (configuration not stated) = 110 % of control

T/C measured on "O=C(Oc1ccccc1)C(Cl)(Cl)Cl" = 95 % of control
